So I've got a bunch of substances here, and I need their Average association constants Ka, H. Sapiens (HRP5) values.
System: ribosomal A-site model RNA hairpin HRP5
Assay remarks: ITC binding to human ribosomal A-site model RNA hairpin HRP5 (Example 3)
Study conditions: sodium acetate buffer (pH 5.5)
Enter your answer as a number in M⁻¹; do not include the unit.

Prompt: Fill in the blank: the reported Average association constants Ka, H. Sapiens (HRP5) of NH2-CTGCTT [PNA12] is ____.
Response: 60000

Prompt: Fill in the blank: the reported Average association constants Ka, H. Sapiens (HRP5) of NH2-CCTGCTT [PNA11] is ____.
Response: 40000

Prompt: Fill in the blank: the reported Average association constants Ka, H. Sapiens (HRP5) of NH2-CCCTGCTT [PNA10] is ____.
Response: 400000
